Target: CXCR4 receptor (human, UniProt P61073 1-352)
Sequence (P61073 whole entry): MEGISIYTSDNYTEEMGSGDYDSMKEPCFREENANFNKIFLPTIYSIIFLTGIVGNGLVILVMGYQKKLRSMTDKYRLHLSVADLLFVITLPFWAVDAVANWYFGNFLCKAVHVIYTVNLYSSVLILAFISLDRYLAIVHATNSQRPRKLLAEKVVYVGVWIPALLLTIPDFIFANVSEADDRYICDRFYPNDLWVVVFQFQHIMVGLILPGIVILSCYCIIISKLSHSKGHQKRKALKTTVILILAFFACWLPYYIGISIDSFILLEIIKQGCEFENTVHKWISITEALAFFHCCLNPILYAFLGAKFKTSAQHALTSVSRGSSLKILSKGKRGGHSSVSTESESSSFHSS
Experiment: cell-based or functional assay
Square brackets hold non-standard residues; d marks the D form. * marks the point of attachment. Palmitoyl = CCCCCCCCCCCCCCCC(=O)*
I'd be grateful if you could share measured IC50 (nM), calcium flux, CCRF-CEM for these entries.
Answers are plain numbers, in nM.

Hi there! I need IC50 (nM), calcium flux, CCRF-CEM for each item below, if you can.
1. Palmitoyl-MG[dY]QKKLRSMTDKYRL-NH2 [CXCR4 i1 loop compound 166]
2. Palmitoyl-MGYQKKLRSMTDKYRL-NH2 (SMILES CCCCCCCCCCCCCCCC(=O)N[C@@H](CCSC)C(=O)NCC(=O)N[C@@H](Cc1ccc(O)cc1)C(=O)N[C@@H](CCC(N)=O)C(=O)N[C@@H](CCCCN)C(=O)N[C@@H](CCCCN)C(=O)N[C@@H](CC(C)C)C(=O)N[C@@H](CCCNC(=N)N)C(=O)N[C@@H](CO)C(=O)N[C@@H](CCSC)C(=O)N[C@H](C(=O)N[C@@H](CC(=O)O)C(=O)N[C@@H](CCCCN)C(=O)N[C@@H](Cc1ccc(O)cc1)C(=O)N[C@@H](CCCNC(=N)N)C(=O)N[C@@H](CC(C)C)C(N)=O)[C@@H](C)O) [Compound No. 38 (Pal-MGYQKKLRSMTDKYRL-amide)]
3. Palmitoyl-MGYQKKLRSATDKYRL-NH2 (SMILES CCCCCCCCCCCCCCCC(=O)N[C@@H](CCSC)C(=O)NCC(=O)N[C@@H](Cc1ccc(O)cc1)C(=O)N[C@@H](CCC(N)=O)C(=O)N[C@@H](CCCCN)C(=O)N[C@@H](CCCCN)C(=O)N[C@@H](CC(C)C)C(=O)N[C@@H](CCCNC(=N)N)C(=O)N[C@@H](CO)C(=O)N[C@@H](C)C(=O)N[C@H](C(=O)N[C@@H](CC(=O)O)C(=O)N[C@@H](CCCCN)C(=O)N[C@@H](Cc1ccc(O)cc1)C(=O)N[C@@H](CCCNC(=N)N)C(=O)N[C@@H](CC(C)C)C(N)=O)[C@@H](C)O) [CXCR4 i1 loop compound 147]

*A*
1. 129
2. 98
3. 54

Dear reader, for each entry below, please note its IC50 (nM), calcium flux, CCRF-CEM.
1. Palmitoyl-MGYQAKLRSMTDKYRL-NH2 (SMILES CCCCCCCCCCCCCCCC(=O)N[C@@H](CCSC)C(=O)NCC(=O)N[C@@H](Cc1ccc(O)cc1)C(=O)N[C@@H](CCC(N)=O)C(=O)N[C@@H](C)C(=O)N[C@@H](CCCCN)C(=O)N[C@@H](CC(C)C)C(=O)N[C@@H](CCCNC(=N)N)C(=O)N[C@@H](CO)C(=O)N[C@@H](CCSC)C(=O)N[C@H](C(=O)N[C@@H](CC(=O)O)C(=O)N[C@@H](CCCCN)C(=O)N[C@@H](Cc1ccc(O)cc1)C(=O)N[C@@H](CCCNC(=N)N)C(=O)N[C@@H](CC(C)C)C(N)=O)[C@@H](C)O) [CXCR4 i1 loop compound 133]
2. Palmitoyl-MAYQKKLRSMTDKYRL-NH2 (SMILES CCCCCCCCCCCCCCCC(=O)N[C@@H](CCSC)C(=O)N[C@@H](C)C(=O)N[C@@H](Cc1ccc(O)cc1)C(=O)N[C@@H](CCC(N)=O)C(=O)N[C@@H](CCCCN)C(=O)N[C@@H](CCCCN)C(=O)N[C@@H](CC(C)C)C(=O)N[C@@H](CCCNC(=N)N)C(=O)N[C@@H](CO)C(=O)N[C@@H](CCSC)C(=O)N[C@H](C(=O)N[C@@H](CC(=O)O)C(=O)N[C@@H](CCCCN)C(=O)N[C@@H](Cc1ccc(O)cc1)C(=O)N[C@@H](CCCNC(=N)N)C(=O)N[C@@H](CC(C)C)C(N)=O)[C@@H](C)O) [CXCR4 i1 loop compound 130]
3. Palmitoyl-MGYQKKLASMTDKYRL-NH2 (SMILES CCCCCCCCCCCCCCCC(=O)N[C@@H](CCSC)C(=O)NCC(=O)N[C@@H](Cc1ccc(O)cc1)C(=O)N[C@@H](CCC(N)=O)C(=O)N[C@@H](CCCCN)C(=O)N[C@@H](CCCCN)C(=O)N[C@@H](CC(C)C)C(=O)N[C@@H](C)C(=O)N[C@@H](CO)C(=O)N[C@@H](CCSC)C(=O)N[C@H](C(=O)N[C@@H](CC(=O)O)C(=O)N[C@@H](CCCCN)C(=O)N[C@@H](Cc1ccc(O)cc1)C(=O)N[C@@H](CCCNC(=N)N)C(=O)N[C@@H](CC(C)C)C(N)=O)[C@@H](C)O) [CXCR4 i1 loop compound 136]

*A*
200
125
302

Please state, for each entry, its recorded IC50 (nM), calcium flux, CCRF-CEM.
1. Palmitoyl-MGAQKKLRSMTDKYRL-NH2 (SMILES CCCCCCCCCCCCCCCC(=O)N[C@@H](CCSC)C(=O)NCC(=O)N[C@@H](C)C(=O)N[C@@H](CCC(N)=O)C(=O)N[C@@H](CCCCN)C(=O)N[C@@H](CCCCN)C(=O)N[C@@H](CC(C)C)C(=O)N[C@@H](CCCNC(=N)N)C(=O)N[C@@H](CO)C(=O)N[C@@H](CCSC)C(=O)N[C@H](C(=O)N[C@@H](CC(=O)O)C(=O)N[C@@H](CCCCN)C(=O)N[C@@H](Cc1ccc(O)cc1)C(=O)N[C@@H](CCCNC(=N)N)C(=O)N[C@@H](CC(C)C)C(N)=O)[C@@H](C)O) [CXCR4 i1 loop compound 131]
2. Palmitoyl-MGYQKKLRSMTAKYRL-NH2 (SMILES CCCCCCCCCCCCCCCC(=O)N[C@@H](CCSC)C(=O)NCC(=O)N[C@@H](Cc1ccc(O)cc1)C(=O)N[C@@H](CCC(N)=O)C(=O)N[C@@H](CCCCN)C(=O)N[C@@H](CCCCN)C(=O)N[C@@H](CC(C)C)C(=O)N[C@@H](CCCNC(=N)N)C(=O)N[C@@H](CO)C(=O)N[C@@H](CCSC)C(=O)N[C@H](C(=O)N[C@@H](C)C(=O)N[C@@H](CCCCN)C(=O)N[C@@H](Cc1ccc(O)cc1)C(=O)N[C@@H](CCCNC(=N)N)C(=O)N[C@@H](CC(C)C)C(N)=O)[C@@H](C)O) [CXCR4 i1 loop compound 149]

*A*
1: 147; 2: 126
